Biological target: human ether-à-go-go-related gene (hERG) potassium channel (human, UniProt Q12809)
Sequence (Q12809 whole entry, looked up): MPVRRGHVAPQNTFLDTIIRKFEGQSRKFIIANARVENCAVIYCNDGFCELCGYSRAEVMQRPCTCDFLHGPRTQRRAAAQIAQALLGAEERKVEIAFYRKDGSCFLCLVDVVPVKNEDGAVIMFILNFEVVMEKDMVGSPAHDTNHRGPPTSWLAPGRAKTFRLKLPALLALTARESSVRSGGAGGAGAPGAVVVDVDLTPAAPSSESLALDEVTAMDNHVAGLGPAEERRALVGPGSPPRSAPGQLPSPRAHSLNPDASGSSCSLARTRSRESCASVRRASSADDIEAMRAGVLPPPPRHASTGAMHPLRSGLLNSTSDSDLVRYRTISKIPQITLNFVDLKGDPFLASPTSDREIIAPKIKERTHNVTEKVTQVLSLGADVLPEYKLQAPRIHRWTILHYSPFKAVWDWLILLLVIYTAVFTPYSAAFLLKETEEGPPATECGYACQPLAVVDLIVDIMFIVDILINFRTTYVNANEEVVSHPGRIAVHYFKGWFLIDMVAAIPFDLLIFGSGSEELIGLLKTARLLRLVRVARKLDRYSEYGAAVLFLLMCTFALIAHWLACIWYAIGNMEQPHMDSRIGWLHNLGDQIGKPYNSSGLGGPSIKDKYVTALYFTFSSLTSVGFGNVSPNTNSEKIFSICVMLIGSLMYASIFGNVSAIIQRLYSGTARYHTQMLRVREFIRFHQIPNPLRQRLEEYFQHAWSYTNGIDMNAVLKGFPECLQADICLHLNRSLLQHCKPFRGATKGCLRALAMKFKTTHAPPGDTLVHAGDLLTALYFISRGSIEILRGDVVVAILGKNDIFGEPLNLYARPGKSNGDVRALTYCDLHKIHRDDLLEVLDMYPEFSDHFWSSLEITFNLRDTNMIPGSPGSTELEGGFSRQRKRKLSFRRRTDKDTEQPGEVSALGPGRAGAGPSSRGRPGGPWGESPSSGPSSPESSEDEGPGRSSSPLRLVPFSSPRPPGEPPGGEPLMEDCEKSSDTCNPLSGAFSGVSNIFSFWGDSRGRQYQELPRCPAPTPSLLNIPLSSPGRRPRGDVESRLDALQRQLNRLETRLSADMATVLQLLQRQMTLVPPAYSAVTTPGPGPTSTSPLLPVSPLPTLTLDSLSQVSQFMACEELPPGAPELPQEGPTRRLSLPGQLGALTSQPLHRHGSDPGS
Assay: primary screen, population patch clamp on CHO cells stably expressing hERG; higher = less effect of the substance
Procedure: Briefly, Chinese hamster ovary (CHO) cells stably expressing the hERG channel were dislodged from tissue culture flasks and dispensed into PPC plates. […] During the recording, background leak currents were estimated by a 100 ms step to -80 mV from an initial holding potential of -70 mV and subtracted from the subsequent current measurement. The campaign was conducted in two phases using slight differences in recording protocol. […]
Hit rate of the full screen: of about 310,000 compounds, about 14,000 (4.5%) showed an effect of 50% or more. The effect is printed as a negative number. The sample holds strong results, similar compounds and a random draw of the others, so the mix is not that of the screen.
Known hERG current change (%, negative = inhibition) at 10uM of a selection of compounds
METRIC_NAME: hERG current change (%, negative = inhibition) at 10uM

{"columns": ["MOLECULE", "RESULT"],
 "data": [
  ["O=C(CCCN1C(=O)/C(=C/c2ccccc2)SC1=S)N1CCOCC1", "-30.1%"],
  ["O=C(c1ccccc1)n1ccn(-c2ccccc2)c1=S", "-14.9%"],
  ["CCCc1nnc(NC(=O)c2c(O)c3cccc4c3n(c2=O)CCC4)s1", "-2.48%"],
  ["CCOc1ccc(NC(=O)c2ccc(-c3csc(C)n3)cc2)cc1", "16.5%"],
  ["O=C(Nc1nnc(C2=COCCO2)o1)c1ccc(Br)cc1", "-0.63%"]
]}

====

molecular target: human ether-à-go-go-related gene (hERG) potassium channel (human, UniProt Q12809); assay: primary screen, population patch clamp on CHO cells stably expressing hERG; higher = less effect of the substance;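 further: peak tail current of the secondary pulse compared with the same well before compound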
Screen size: about 310,000 compounds; about 14,000 (4.5%) showed an effect of 50% or more. Effects have a minus sign here. What follows is part of a selection rich in strong results, with near analogues and random picks from the rest.
Known hERG current change (%, negative = inhibition) at 10uM of a selection of molecules
METRIC_NAME: hERG current change (%, negative = inhibition) at 10uM (%)

{"columns": ["MOLECULE", "RECORDED_NUMBER"],
 "data": [
  ["CCc1cccc(CC)c1NC(=O)C1CN(S(=O)(=O)c2ccccc2)CCN1S(=O)(=O)c1ccccc1 (stereo not shown)", 9.16],
  ["Cc1ccc(C)c(NC(=O)[C@@H]2CCCN2S(=O)(=O)c2ccccc2F)c1", 10.9],
  ["CCCNC(=O)C1CCN(c2ccc(S(=O)(=O)N3CCOCC3)cc2Cl)CC1", 6.36],
  ["Br.CC1CC(C)CN(CC(=O)c2ccc(OC(F)F)cc2)C1 (stereo not shown)", -91.5],
  ["Br.O=C(CN1CCCCC1)c1ccc(OC(F)F)cc1", -69.6],
  ["O=C1CC(c2ccccc2)CCc2sccc2N1 (stereo not shown)", -5.86],
  ["CC(C)(C)NC(=O)CSc1nc2ccccc2c(=O)[nH]1", 11.7],
  ["Br.COc1ccc(C(=O)CN2CCCCC2)cc1", 7.07],
  ["Cl.O=C(CN1CCCCC1)c1ccc(F)cc1", 1.94],
  ["CC(=O)Nc1ccc(NC(=O)c2cc([N+](=O)[O-])cc([N+](=O)[O-])c2)cc1", 22.5]
]}

====

target: human ether-à-go-go-related gene (hERG) potassium channel (human); test: primary screen, population patch clamp on CHO cells stably expressing hERG; higher = less effect of the substance;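 further: peak tail current of the secondary pulse compared with the same well before compound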
Screen size: about 310,000 compounds; about 14,000 (4.5%) showed an effect of 50% or more. The effect is printed as a negative number. The entries come from a sample that favours strong results as a whole.
# hERG current change (%, negative = inhibition) at 10uM >= -20% gives y, anything below gives n

{"columns": ["COMPOUND", "GROUP"],
 "data": [
  ["N#C/C(=C\\c1ccc(F)cc1F)S(=O)(=O)c1ccccn1", "y"],
  ["O=C(NC1CC1)C1=C[C@@H](c2ccccc2)C[C@@H](OCc2ccc(CO)cc2)O1", "n"],
  ["CCOc1ccccc1N1CCN(Cc2cc3c(cc2[N+](=O)[O-])OCO3)CC1", "n"],
  ["O=C(NC1CC1)C1=C[C@@H](c2ccc(C(F)(F)F)cc2)C[C@@H](OCc2ccc(CO)cc2)O1", "n"],
  ["CC1(C)CC2(CC(c3ccccc3)Oc3cc(O)ccc32)NC(=S)N1 (stereo not drawn)", "y"],
  ["COc1cc(-c2cc(-c3ccc(O)cc3)nc(N)c2C#N)ccc1O", "y"],
  ["CC1(C)CC2(CC(c3ccccc3)Oc3cc(O)ccc32)NC(=O)N1 (stereo not drawn)", "y"],
  ["O=C(NC1CC2CCCC(C1)N2C(=O)NCc1ccccc1)C1CC1 (stereo not drawn)", "y"],
  ["O=C(O)C1=C[C@H](c2ccc(Br)cc2)C[C@H](OCc2ccc(CO)cc2)O1", "y"],
  ["Cc1cc(C)cc(N(C(=O)C(F)(F)F)C(C(=O)NC2CCCCC2)c2cccs2)c1 (stereo not drawn)", "y"],
  ["O=C(C1=C[C@H](c2ccc(C(F)(F)F)cc2)C[C@H](OCc2ccc(CO)cc2)O1)N1CCCCCCC1", "y"],
  ["O=C(NC1CC1)C1=C[C@H](c2ccc(Br)cc2)C[C@H](OCc2ccc(CO)cc2)O1", "n"],
  ["COc1ccc(-c2[nH]ncc2CN2CCN(c3ccc(F)cc3)CC2)cc1", "n"],
  ["Fc1ccc(N2CCN(Cc3nnc(-c4ccccc4)o3)CC2)cc1", "y"],
  ["CN1CCN(C(=O)C2=C[C@@H](c3ccc(C(F)(F)F)cc3)C[C@@H](OCc3ccc(CO)cc3)O2)CC1", "n"],
  ["C#Cc1ccc([C@@H]2C=C(C(=O)NC3CC3)O[C@H](OCc3ccc(CO)cc3)C2)cc1", "y"],
  ["Fc1ccc(N2CCN(Cc3cn[nH]c3-c3ccccc3)CC2)cc1", "n"],
  ["O=C(NC1CC1)C1=C[C@H](c2ccc(C(F)(F)F)cc2)C[C@H](OCc2ccc(CO)cc2)O1", "n"]
]}

====

Known hERG current change (%, negative = inhibition) at 10uM of a selection of molecules
target: human ether-à-go-go-related gene (hERG) potassium channel (human, UniProt Q12809); test: primary screen, population patch clamp on CHO cells stably expressing hERG; higher = less effect of the substance;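 further: peak tail current of the secondary pulse compared with the same well before compound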
Screen size: about 310,000 compounds; about 14,000 (4.5%) showed an effect of 50% or more. The effect is printed as a negative number. The sample as a whole holds a higher share of strong results than the screen did.
METRIC_NAME: hERG current change (%, negative = inhibition) at 10uM (%)

{"columns": ["MOLECULE", "RECORDED_NUMBER"],
 "data": [
  ["CCn1cc(C(=O)O)c(=O)c2cc(F)c(N3CCN(S(=O)(=O)c4ccc(NC(=O)OC)cc4)CC3)cc21", 21.8],
  ["COc1ccc(C[C@H]2CN3C(=NC[C@@H]3Cc3ccc(O)cc3)N2C[C@H](C)NC(=O)c2ccc(C)c(Br)c2)cc1", -77.9],
  ["CCCC1(C(=O)OC)NC(c2ccc(OC)c(OC)c2)C2C(=O)N(c3ccc4c(c3)OCO4)C(=O)C21 (stereo not drawn)", 16.7],
  ["C(=C\\c1ccncc1)/c1ccccc1", -10.6],
  ["COc1ccccc1CNC(=O)c1cc(C)nn1-c1ccccc1", 1.87],
  ["N#C/C(=C\\c1cn(Cc2ccccc2)c2ccccc12)C(=O)NCc1ccco1", 12.5],
  ["CC(C)C(=O)c1cn(CC(=O)NCc2ccc3c(c2)OCO3)c2ccccc12", 16],
  ["CCC(C(=O)N1CCN(c2ccccn2)CC1)n1nc(C)n2c(cc3occc32)c1=O (stereo not drawn)", -5.95],
  ["O=C(O)C1C2C=CC(C2)C1C(=O)Nc1cccc(C(F)(F)F)c1 (stereo not drawn)", 8.95]
]}

====

target: human ether-à-go-go-related gene (hERG) potassium channel (human); assay: primary screen, population patch clamp on CHO cells stably expressing hERG; higher = less effect of the substance;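 further: peak tail current of the secondary pulse compared with the same well before compound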
Among all 310,000 compounds or so, about 14,000 (4.5%) showed an effect of 50% or more. Effects have a minus sign here. What follows is part of a selection rich in strong results, with near analogues and random picks from the rest.
Known hERG current change (%, negative = inhibition) at 10uM of a selection of molecules
METRIC_NAME: hERG current change (%, negative = inhibition) at 10uM (%)

{"columns": ["MOLECULE", "MEASURED_TARGET", "MEASUREMENT_UNIT", "RECORDED_NUMBER"],
 "data": [
  ["COc1ccc(C(=O)CCN2CCC(C)CC2)cc1.Cl", "human ether-à-go-go-related gene (hERG) potassium channel (human)", "%", -30],
  ["CCOc1ccc(N(CC(=O)Nc2cccc(Br)c2)S(C)(=O)=O)cc1", "human ether-à-go-go-related gene (hERG) potassium channel (human)", "%", -1.12],
  ["COc1cc2c(cc1OC)CN(CCC(=O)c1ccc(Br)cc1)CC2", "human ether-à-go-go-related gene (hERG) potassium channel (human)", "%", -66.9],
  ["COc1ccc(C(=O)CCN2CCc3cc(OC)c(OC)cc3C2)cc1.Cl", "human ether-à-go-go-related gene (hERG) potassium channel (human)", "%", -69.1],
  ["CC(=O)N1CCN(c2ccc(NC(=O)c3ccc(OCc4ccccc4)cc3)cc2)CC1", "human ether-à-go-go-related gene (hERG) potassium channel (human)", "%", 16.7],
  ["COc1cc2c(cc1OC)CN(CCOc1ccc(Br)cc1)CC2", "human ether-à-go-go-related gene (hERG) potassium channel (human)", "%", -68.8],
  ["Cc1cc(C)n(CCNC(=O)CC2C(=O)NCCN2Cc2ccccc2C(F)(F)F)n1 (stereo not drawn)", "human ether-à-go-go-related gene (hERG) potassium channel (human)", "%", 8.81],
  ["O=C(COC(=O)c1ccccc1SCC(=O)N1CCCC1)NC1CCCCC1", "human ether-à-go-go-related gene (hERG) potassium channel (human)", "%", -5.12],
  ["CC(C)OC(=O)c1sc2nc(-c3ccccc3)ccc2c1N", "human ether-à-go-go-related gene (hERG) potassium channel (human)", "%", 16.7],
  ["Cc1ccc2[nH]c3c(Cl)ncnc3c2c1", "human ether-à-go-go-related gene (hERG) potassium channel (human)", "%", 5.18],
  ["Cn1c(=O)c2[nH]c(N=Nc3ccc(N)cc3N)nc2n(C)c1=O", "human ether-à-go-go-related gene (hERG) potassium channel (human)", "%", 28.7],
  ["NC(=O)c1sc2nc(-c3ccccc3)ccc2c1N", "human ether-à-go-go-related gene (hERG) potassium channel (human)", "%", 18.7],
  ["CN(c1ccc(O)cc1)S(=O)(=O)c1ccc2ccccc2c1", "human ether-à-go-go-related gene (hERG) potassium channel (human)", "%", -12.8],
  ["COC(=O)c1ccc(CNC(=O)COC(=O)c2cc(Cl)nc(Cl)c2)cc1", "human ether-à-go-go-related gene (hERG) potassium channel (human)", "%", 8.69],
  ["CCCCN(Cc1ccccc1)C(=O)CCN1C(=O)C2C3C=CC(C3)C2C1=O (stereo not drawn)", "human ether-à-go-go-related gene (hERG) potassium channel (human)", "%", 1.48],
  ["CCC(=O)N1CCc2cc(Br)cc(S(=O)(=O)N3CCCCCC3)c21", "human ether-à-go-go-related gene (hERG) potassium channel (human)", "%", -28.6],
  ["COc1ccc(S(=O)(=O)N2CCN(CCOc3ccc(Br)cc3)CC2)cc1OC", "human ether-à-go-go-related gene (hERG) potassium channel (human)", "%", -12.8],
  ["O=C(NCCCn1ccnc1)c1noc2c1CCCC2", "human ether-à-go-go-related gene (hERG) potassium channel (human)", "%", -41.8],
  ["COc1ccc(CC(=O)N2CCc3cc(OC)c(OC)cc3C2)cc1", "human ether-à-go-go-related gene (hERG) potassium channel (human)", "%", -6.59],
  ["Brc1cccc(OCCN2CCc3ccccc3C2)c1.Cl", "human ether-à-go-go-related gene (hERG) potassium channel (human)", "%", -5.84],
  ["COc1ccccc1-c1cnn2c(N3CCOCC3)cc(C)nc12", "human ether-à-go-go-related gene (hERG) potassium channel (human)", "%", 23.9]
]}
